study_system: T1, IL-18 receptor (IL-18Rαβ) on cells (UniProt Q13478 19-541; O95256 20-599, limits assumed)
T1 sequence (looked up) 1: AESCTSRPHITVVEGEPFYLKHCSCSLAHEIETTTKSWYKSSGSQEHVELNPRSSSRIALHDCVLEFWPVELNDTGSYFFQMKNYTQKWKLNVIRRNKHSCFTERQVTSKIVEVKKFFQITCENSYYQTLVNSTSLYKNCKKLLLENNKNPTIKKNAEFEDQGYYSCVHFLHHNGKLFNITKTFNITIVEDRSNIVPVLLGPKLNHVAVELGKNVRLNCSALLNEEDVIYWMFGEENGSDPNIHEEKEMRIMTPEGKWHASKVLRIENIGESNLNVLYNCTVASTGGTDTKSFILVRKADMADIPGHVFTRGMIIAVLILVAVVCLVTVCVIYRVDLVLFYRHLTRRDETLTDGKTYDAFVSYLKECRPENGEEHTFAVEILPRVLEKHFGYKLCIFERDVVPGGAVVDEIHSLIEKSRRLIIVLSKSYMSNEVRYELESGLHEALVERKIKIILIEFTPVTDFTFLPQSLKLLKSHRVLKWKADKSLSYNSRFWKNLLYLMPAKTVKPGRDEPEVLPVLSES
T1 sequence (looked up) 2: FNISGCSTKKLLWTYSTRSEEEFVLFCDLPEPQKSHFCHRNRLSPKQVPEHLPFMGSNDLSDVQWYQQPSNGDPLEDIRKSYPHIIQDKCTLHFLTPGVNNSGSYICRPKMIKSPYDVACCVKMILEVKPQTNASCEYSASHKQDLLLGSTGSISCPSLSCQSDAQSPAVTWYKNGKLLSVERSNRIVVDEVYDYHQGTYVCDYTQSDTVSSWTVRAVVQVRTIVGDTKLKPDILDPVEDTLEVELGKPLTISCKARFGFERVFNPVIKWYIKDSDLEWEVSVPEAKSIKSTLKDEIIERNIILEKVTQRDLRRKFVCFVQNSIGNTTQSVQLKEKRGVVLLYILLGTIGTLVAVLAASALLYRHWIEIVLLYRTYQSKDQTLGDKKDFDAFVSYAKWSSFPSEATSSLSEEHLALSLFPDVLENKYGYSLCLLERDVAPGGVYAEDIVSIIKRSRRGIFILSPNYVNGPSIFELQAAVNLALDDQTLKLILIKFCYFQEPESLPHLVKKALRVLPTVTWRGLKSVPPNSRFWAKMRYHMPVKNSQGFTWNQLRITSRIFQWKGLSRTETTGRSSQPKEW
experimental_protocol: cell-based or functional assay
readout: Hek Blue reporter assay EC50 (pM)
# number only, unit pM dropped from output

[
  {
    "binder": "C190 + MMP9 (ligand) MAAEPVEDNCINFVAMKFIDNTLYFIAEDDENLESDYFGKLKSKLSIIRNLNDQVLFIDQGNRPLFEDMTDSDARDNAPRTIFIISMYADSQPRGMAVAISVKCEKISTLSAENKIISFKEMNPPDNIKDTKSDIIFFQRSVPGHDNKMQFESSSYEGYFLAAEKERDLFKLILKKEDELGDRSIMFTVQNED",
    "unit_text": "pM",
    "Hek Blue reporter assay EC50": 198
  },
  {
    "binder": "C315 (ligand) MAAEPVEDNSINFVAMKFIDNTLYFIAEDDENLESDPLGYFGKLKSKLSIIRNLNDQVLFIDQGNRPLFEDMTDSDARDNAPRTIFIISMYADSQPRGMAVAISVKCEKISTLSAENKIISFKEMNPPDNIKDTKSDIIFFQRSVPGHDNKMQFESSSYEGYFLAAEKERDLFKLILKKEDELGDRSIMFTVQNED",
    "unit_text": "pM",
    "Hek Blue reporter assay EC50": 3360
  },
  {
    "binder": "C136 (ligand) YFGKLKSKLSIIRNLNDQVLFIDQGNRPLFEDMTDSDARDNAPRTIFIISMYADSQPRGMAVAISVKCEKISTLSAENKIISFKEMNPPDNIKDTKSDIIFFQRSVPGHDNKMQFESSSYEGYFLAAEKERDLFKLILKKEDELGDRSIMFTVQNEGGSGGSNIVPVLLGPKLNHVAVELGKNVRLNCSALLNEEDVIYWMFGEENGSDPNIHEEKEMRIMTPEGKWHASKVLRIENIGESNLNVLYNCTVASTGGTDTKSFILVRKADHHHHHH",
    "unit_text": "pM",
    "Hek Blue reporter assay EC50": 0.884
  },
  {
    "binder": "C172 (ligand) YFGKLKSKLSIIRNLNDQVLFIDQGNRPLFEDMTDSDARDNAPRTIFIISMYADSQPRGMAVAISVKCEKISTLSAENKIISFKEMNPPDNIKDTKSDIIFFQRSVPGHDNKMQFESSSYEGYFLAAEKERDLFKLILKKEDELGDRSIMFTVQNESGGPGPAGMKGLPGSNIVPVLLGPKLNHVAVELGKNVRLNCSALLNEEDVIYWMFGEENGSDPNIHEEKEMRIMTPEGKWHASKVLRIENIGESNLNVLYNCTVASTGGTDTKSFILVRKADHHHHHH",
    "unit_text": "pM",
    "Hek Blue reporter assay EC50": 1.09
  }
]

Now look at this entry.
Noted for C137 (ligand) YFGKLKSKLSIIRNLNDQVLFIDQGNRPLFEDMTDSDARDNAPRTIFIISMYADSQPRGMAVAISVKCEKISTLSAENKIISFKEMNPPDNIKDTKSDIIFFQRSVPGHDNKMQFESSSYEGYFLAAEKERDLFKLILKKEDELGDRSIMFTVQNEGGGGSGGGGSGGGGSNIVPVLLGPKLNHVAVELGKNVRLNCSALLNEEDVIYWMFGEENGSDPNIHEEKEMRIMTPEGKWHASKVLRIENIGESNLNVLYNCTVASTGGTDTKSFILVRKADHHHHHH : its Hek Blue reporter assay EC50 reads 2.08
